Target: Rap guanine nucleotide exchange factor 3 (Homo sapiens) (UniProt O95398)
Sequence (O95398 whole entry, looked up): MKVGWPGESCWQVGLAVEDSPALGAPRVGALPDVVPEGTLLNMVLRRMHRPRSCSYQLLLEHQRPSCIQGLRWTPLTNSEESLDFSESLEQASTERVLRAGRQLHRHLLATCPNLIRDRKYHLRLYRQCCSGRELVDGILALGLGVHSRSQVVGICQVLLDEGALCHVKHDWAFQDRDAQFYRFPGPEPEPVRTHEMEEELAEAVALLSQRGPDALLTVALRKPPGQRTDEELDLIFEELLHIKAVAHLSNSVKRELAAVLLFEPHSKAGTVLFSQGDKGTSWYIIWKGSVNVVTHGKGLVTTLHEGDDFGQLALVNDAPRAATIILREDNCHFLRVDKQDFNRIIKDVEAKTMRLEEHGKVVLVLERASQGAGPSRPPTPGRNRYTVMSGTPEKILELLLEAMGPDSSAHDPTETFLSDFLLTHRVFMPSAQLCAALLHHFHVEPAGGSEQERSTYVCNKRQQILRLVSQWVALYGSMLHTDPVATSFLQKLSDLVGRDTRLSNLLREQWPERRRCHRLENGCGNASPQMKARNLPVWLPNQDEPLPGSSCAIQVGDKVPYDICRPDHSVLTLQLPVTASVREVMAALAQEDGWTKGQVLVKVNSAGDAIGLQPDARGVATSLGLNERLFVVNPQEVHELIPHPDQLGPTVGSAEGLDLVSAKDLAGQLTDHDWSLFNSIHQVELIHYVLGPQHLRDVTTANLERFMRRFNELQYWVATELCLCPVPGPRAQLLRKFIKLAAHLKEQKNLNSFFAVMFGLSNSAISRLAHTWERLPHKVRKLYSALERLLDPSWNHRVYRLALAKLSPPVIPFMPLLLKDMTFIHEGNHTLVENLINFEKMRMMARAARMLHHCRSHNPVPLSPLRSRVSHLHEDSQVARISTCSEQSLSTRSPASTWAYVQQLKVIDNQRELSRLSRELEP
Experiment: Counterscreen qHTS for antagonist of cAMP-regulated guanine nucleotide exchange factor 3 (EPAC1) (AID 1645888);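 further: fluorescence loss as bound BODIPY-GDP is released from Rap1B; % of control where 0% means no effect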
Conditions: Rap1B-BODIPY-GDP nucleotide exchange, fluorescence; series mostly up to 154 µM
Records with an inconclusive call do not appear. The source made the active and inactive calls. The call rests on the fitted dose curve; in most records, active means well fitted inhibition curve with a large enough effect; inconclusive means small, poorly fitted or top-dose-only effect; inactive means no such curve, though single readings can be large or run the other way.
value kind: activity change, negative = inhibition

>  <molecule>
CN(C(=O)COC(=O)/C=C/c1ccc2c(c1)OCO2)c1c(N)n(Cc2ccccc2)c(=O)[nH]c1=O

>  <value kind>
activity change, negative = inhibition

>  <result>
inactive

$$$$
>  <molecule>
O=C(COC(=O)c1cccc(-n2cnnn2)c1)c1ccc(F)cc1

>  <value kind>
activity change, negative = inhibition

>  <result>
-3.01% [at 30.8 µM] (inactive)

$$$$
>  <molecule>
CN1CCN(CCC(=O)Nc2ccc(Cl)cc2)CC1

>  <value kind>
activity change, negative = inhibition

>  <result>
inactive

$$$$
>  <molecule>
CN(C(=O)CSc1nc(-c2ccc(C(C)(C)C)cc2)c(C#N)c(=O)[nH]1)C1CCCCC1

>  <value kind>
activity change, negative = inhibition

>  <result>
inactive

$$$$
>  <molecule>
CCc1nc(C)cn1S(=O)(=O)c1cc(C)c(OC)cc1C

>  <value kind>
activity change, negative = inhibition

>  <result>
inactive

$$$$
>  <molecule>
CCNC(=O)C1(C)CCN(C(=O)c2ccc(C(=O)OC)cc2)C1 (stereo unspecified)

>  <value kind>
activity change, negative = inhibition

>  <result>
inactive

$$$$
>  <molecule>
Cc1cc(NCc2ccco2)n2c(nc3ccccc32)c1C#N

>  <value kind>
activity change, negative = inhibition

>  <result>
inactive

$$$$
>  <molecule>
CCCCSc1nc2c(c(=O)n1CC)SC(C)C2 (stereo unspecified)

>  <value kind>
activity change, negative = inhibition

>  <result>
2.79% [at 30.8 µM] (inactive)

$$$$
>  <molecule>
Cc1nn(CSc2c(F)c(F)c(F)c(F)c2F)c(C)c1[N+](=O)[O-]

>  <value kind>
activity change, negative = inhibition

>  <result>
-18.4% [at 30.8 µM] (inactive)

$$$$
>  <molecule>
CC(=O)Nc1nc(C)c(Oc2ccc(Cl)cc2Cl)c(=O)[nH]1

>  <value kind>
activity change, negative = inhibition

>  <result>
-5.48% [at 30.8 µM] (inactive)

$$$$
>  <molecule>
CCCCCC1CCC(c2ccc(C(N)=O)cc2)CC1 (stereo unspecified)

>  <value kind>
activity change, negative = inhibition

>  <result>
inactive

$$$$

###

Target: Rap guanine nucleotide exchange factor 3 (Homo sapiens)
Assay: Counterscreen qHTS for antagonist of cAMP-regulated guanine nucleotide exchange factor 3 (EPAC1) (AID 1645888);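 further: fluorescence loss as bound BODIPY-GDP is released from Rap1B; % of control where 0% means no effect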
Details: Rap1B-BODIPY-GDP nucleotide exchange, fluorescence; series mostly up to 154 µM
Inconclusive results are not listed. Calls of active or inactive are those of the source. Calls come from the whole dose curve; as a rule, active = well fitted inhibition curve with a large enough effect; inconclusive = small, poorly fitted or top-dose-only effect; inactive = no such curve, though single readings can be large or run the other way.
value kind: activity change, negative = inhibition

>  <compound>
COC(=O)CC1(C(=O)OC)Oc2ccc(Br)cc2C(=O)N1c1cc(Cl)cc(Cl)c1 (stereo not given)

>  <result>
-4.58% [at 30.8 µM] (inactive)

$$$$
>  <compound>
COc1ccc(S(=O)(=O)CC(=O)c2cc3cc(Br)ccc3oc2=O)cc1

>  <result>
-4.76% [at 30.8 µM] (inactive)

$$$$
>  <compound>
Cc1ccc2c(c1)-c1c(c(C(=O)N3CCN(c4cc(C)ccc4C)CC3)nn1C)CS2

>  <result>
inactive

$$$$
>  <compound>
C=CCn1c(O)c(N=NC(=O)CNC(=O)/C=C/c2ccc(OC)cc2)c2ccccc21

>  <result>
inactive

$$$$
>  <compound>
N#CC(=Cc1ccc(-c2ccccc2)cc1)C(=O)c1ccccc1

>  <result>
-16.6% [at 30.8 µM] (inactive)

$$$$
>  <compound>
O=[N+]([O-])c1cc(-c2ccccc2)cc([N+](=O)[O-])c1O

>  <result>
inactive

$$$$
>  <compound>
COc1ccc(N2CCN(S(=O)(=O)c3cc4c(cc3C)NC(=O)CO4)CC2)cc1

>  <result>
inactive

$$$$
>  <compound>
O=C(COC(=O)c1nc(Cl)ccc1Cl)c1ccccc1Cl

>  <result>
inactive

$$$$
>  <compound>
Cc1ccc(C(CCN(Cc2ccccc2)C(=O)c2ccco2)c2ccco2)cc1 (stereo not given)

>  <result>
inactive

$$$$
>  <compound>
COc1ccc2ccccc2c1C(=O)/C=C\c1ccoc1

>  <result>
inactive

$$$$
>  <compound>
O=S1(=O)CCO[C@H]2Cc3ccccc3[C@H]2N1Cc1ccc(Cl)cc1

>  <result>
-21.2% [at 30.8 µM] (inactive)

$$$$
>  <compound>
COc1ccc(-c2cc(OC(=O)c3ccc(Cl)cc3)c3c(C)oc(C)c3c(=O)c2)cc1

>  <result>
inactive

$$$$
>  <compound>
COc1cc2c(-c3ccc4c(c3)OCO4)c(-c3ccsc3)oc(=O)c2cc1OC

>  <result>
10.4% [at 30.8 µM] (inactive)

$$$$
>  <compound>
CC(C)(C)c1cc(NC(=O)COC(=O)c2ccc(O)cc2O)n(-c2ccccc2)n1

>  <result>
-16.3% [at 30.8 µM] (inactive)

$$$$
>  <compound>
CO/N=C/c1ccc(Sc2ccccc2)c([N+](=O)[O-])c1

>  <result>
-14.9% [at 30.8 µM] (inactive)

$$$$
>  <compound>
CCCCn1c(N)c(N(CC(C)C)C(=O)C2CCN(S(=O)(=O)c3ccc(C)c(C)c3)CC2)c(=O)[nH]c1=O

>  <result>
inactive

$$$$
>  <compound>
CCc1ccc(S(=O)(=O)Nc2cc3c(cc2C)n(C)c(=O)n3C)cc1

>  <result>
-10.1% [at 30.8 µM] (inactive)

$$$$
>  <compound>
Oc1ccc(NCc2ccccc2OCc2ccccc2)cc1

>  <result>
inactive

$$$$
>  <compound>
Cc1cc2ccccn2c1C(=O)c1ccc(C#N)cc1

>  <result>
inactive

$$$$
>  <compound>
O=C(N/N=C/c1cn(-c2ccccc2)nc1-c1cccnc1)c1ccccc1

>  <result>
-17.7% [at 30.8 µM] (inactive)

$$$$
>  <compound>
CCN(CC)S(=O)(=O)c1cc(NC(=O)Cn2ncc(Cl)c(Cl)c2=O)ccc1C

>  <result>
-2.1% [at 30.8 µM] (inactive)

$$$$
>  <compound>
Cc1ccc(S(=O)(=O)N(C)C)cc1NC(=O)CSc1nc2ncc(Cl)cc2[nH]1

>  <result>
inactive

$$$$
>  <compound>
CC1(C(=O)NS(=O)(=O)c2cccc(Cl)c2)CCN1C(=O)C1(c2ccc(Cl)cc2)CC1 (stereo not given)

>  <result>
-16.3% [at 30.8 µM] (inactive)

$$$$
>  <compound>
CCCCC(=O)Nc1cccc(NC(=O)c2ccccc2Br)c1

>  <result>
inactive

$$$$
>  <compound>
O=C(CSc1nnc(-c2cccnc2)n1CCc1ccccc1)NCc1ccccc1

>  <result>
-2.95% [at 30.8 µM] (inactive)

$$$$
>  <compound>
COC(=O)c1c(NC(=O)c2c(OC)cccc2OC)sc2c1CCCC2

>  <result>
inactive

$$$$
>  <compound>
CN(C)c1ccc(/C=C/C(=O)c2ccc3c(c2)OCO3)cc1

>  <result>
inactive

$$$$
>  <compound>
O=C1OC(c2ccc3ccccc3c2O)(c2ccc3ccccc3c2O)c2ccccc21

>  <result>
inactive

$$$$
>  <compound>
O=C(O)c1ccccc1N/N=C/C1=C(N2CCOCC2)C(=C\c2ccccc2)/CC1

>  <result>
inactive

$$$$
>  <compound>
Cc1cn([C@H]2C[C@H](O)[C@@H](CCC(=O)NCc3ccc4c(c3)OCO4)O2)c(=O)[nH]c1=O

>  <result>
inactive

$$$$
>  <compound>
O=C(OCC(=O)N1CCCC1=O)c1cc(Cl)ccc1O

>  <result>
inactive

$$$$
>  <compound>
COc1ccc(C(=O)COC(=O)CCN2C(=O)C3CC=CCC3C2=O)c(OC)c1 (stereo not given)

>  <result>
-27.6% [at 30.8 µM] (inactive)

$$$$
>  <compound>
CC(=O)c1ccc(N2CCN(C(=O)C3CCCN(S(=O)(=O)c4c(C)[nH]c(=O)[nH]c4=O)C3)CC2)cc1 (stereo not given)

>  <result>
inactive

$$$$
>  <compound>
C=CCSc1nc(-c2ccc(OC)cc2)c(C#N)c(=O)n1CC=C

>  <result>
-30% [at 30.8 µM] (inactive)

$$$$
>  <compound>
Cc1ccc(S(=O)(=O)N2[C@@H](c3ccc(Br)cc3)C(C(=O)O)=CC[C@H]2c2ccc(C(C)C)cc2)cc1

>  <result>
inactive

$$$$
>  <compound>
Cc1ccc([C@H]2C(C(=O)O)=CC[C@@H](c3ccc(Cl)c(Cl)c3)N2S(=O)(=O)c2ccc(C)cc2)cc1

>  <result>
-5.89% [at 30.8 µM] (inactive)

$$$$
>  <compound>
CC1CCc2c(sc(NC(=O)Cc3ccccc3)c2C(=O)Nc2ccc(Cl)cc2)C1 (stereo not given)

>  <result>
inactive

$$$$
>  <compound>
Cc1cc(C)c(S(=O)(=O)N2CCCCC2CCNC(=O)C(=O)NCC2CCCO2)c(C)c1 (stereo not given)

>  <result>
6.58% [at 30.8 µM] (inactive)

$$$$
>  <compound>
Cc1cnc(C(=O)N(c2ccc(N3CCOCC3)cc2)C2C(=O)Nc3ccccc3N=C2c2ccc(F)cc2)cn1 (stereo not given)

>  <result>
inactive

$$$$
>  <compound>
O=C(Nc1ccccc1N1CCOCC1)c1cccc2c(Br)cccc12

>  <result>
inactive

$$$$
